Known median enrichment of a selection of substances
Test system: HEK293T;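 note: lentiviral eGFP-IRES-mCherry reporter pool sorted by FACS 96 h post-transduction, gated on mCherry-high cells, Illumina read counts normalized per million, median across four biological replicates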
Assay: median enrichment of reporter reads in eGFP-reduced (low/intermediate) vs eGFP-high sorted cells (eGFP-extension fusion abundance) (ratio); higher = stronger loss of eGFP-fusion protein abundance (more destabilising extension)
Just the number.

Below are worked cases with known answers.
Substance | Reported
WNRIEQNRIE [PCSK5] | 0.778
LFIRSHGPITITLFSAFLLSSFLLSSPLLSSPLLPSPLCFFFFFFSFLWRSFALVAQAAVQWLNLGSLQPLPPRFK [GFRAL] | 7.15
LPPLSPECNKHQIPCVK [POLR2I] | 2.23

Requested read-out: median enrichment. Entry: SKHLKC [FAN1] 0.578

Requested read-out: median enrichment. Entry: GTSPAPLRTPPRLDGWAHASHWGPGSRRWAPTLGPRGAANHTGLRPSYPAPSPSTSTFTSPPFHFFLYVFFLLETDSIHIEYN [JUNB] 4.58
